Tested on: A549
experimental details: Antiproliferative activity against human A549 cells assessed as […] cell proliferation at 10 uM incubated for 48 hrs in presence of 15 uM of CDDP by WST-1 assay relative to control
Format: functional
Activity reference
readout label: Activity (%)

molecule smiles | reading unit | assay value
CS(=O)(=O)c1ccc(-c2cnc3[nH]cc(C(=O)N4CCC(c5ccccc5)CC4)c3c2)cc1 | % | 44
CS(=O)(=O)c1ccc(-c2cnc3[nH]nc(C(=O)N4CCC(c5ccccc5)CC4)c3c2)cc1 | % | 71
CS(=O)(=O)c1ccc(-c2cnc3[nH]c(C(=O)NCc4ccccc4)cc3c2)cc1 | % | 72
CCN(CC)c1ccc(CNC(=O)c2n[nH]c3ncc(-c4ccc(S(=O)(=O)C(C)C)cc4)cc23)cc1 | % | 57
CC(C)S(=O)(=O)c1ccc(-c2cnc3[nH]cc(CN4CCc5ccccc5C4)c3c2)cc1 | % | 62
CS(=O)(=O)c1ccc(-c2cnc3[nH]c(C(=O)N4CCC(c5ccccc5)CC4)cc3c2)cc1 | % | 66
CCN(CC)c1ccc(CNC(=O)c2cc3cc(-c4ccc(S(=O)(=O)C(C)C)cc4)cnc3[nH]2)cc1 | % | 57
CCN1CCN(Cc2c[nH]c3ncc(-c4ccc(S(=O)(=O)C(C)C)cc4)cc23)CC1 | % | 65
CC(C)S(=O)(=O)c1ccc(-c2cnc3[nH]c(C(=O)Nc4ccccc4)cc3c2)cc1 | % | 65

Data origin, for the record: ChEMBL document CHEMBL5113478
